target: Mitochondrial complex I (NADH dehydrogenase); assay: Inhibition of mitochondrial ETC complex 1 in human T47D cells assessed as inhibition of 1,10-phenanthroline-induced HIF1 activation incubated for 30 mins prior to 1,10-phenanthroline-challenge measured after 16 hrs by luciferase reporter assay; format: cell-based
pIC50: −log10 of the molar value.
Values of pIC50 greater than or equal to 5 map to yes; values below map to no.

The examples below pair each entry with its known result.
QUERY: // inclusive: pIC50 at least 5? input: COC(C)(C)[C@H](O)CC/C(C)=C/COc1ccc2ccc(=O)oc2c1
RESULT: no

QUERY: Hello, I need to know if C=C(C)[C@H](O)CC/C(C)=C/COc1ccc2ccc(=O)oc2c1 has measured pIC50 not below 5. Thanks!
RESULT: no

QUERY: Identify whether the reported pIC50 of the following compound is 5 or greater: COc1cc2ccc(=O)oc2cc1OC/C=C(\C)CCC=C(C)C
RESULT: no

QUERY: In plain terms: is recorded pIC50 at least 5 for CC(C)=CCOc1ccc(CCNC(=O)/C=C/c2ccccc2)cc1 [DEHYDROMARMELINE] ?
RESULT: no

QUERY: For this compound, is measured pIC50 5 or higher? CC(C)=CCC/C(C)=C/COc1ccc2ccc(=O)oc2c1 [AURAPTENE]
RESULT: no

Others:
QUERY: Check if pIC50 >= 5 (inclusive). Item: CCCCCCCCCCCCCCCC(=O)O[C@H](CC/C(C)=C/COc1ccc2ccc(=O)oc2c1)C(C)(C)O [R-(+)-MARMIN-6'-PALMITATE]
RESULT: no

QUERY: Is pIC50 for CCCCCCCC(=O)O[C@H](CC/C(C)=C/COc1ccc2ccc(=O)oc2c1)C(C)(C)O [R-(+)-MARMIN-6'-OCTANOATE] at or above 5?
RESULT: yes

QUERY: Dear colleague, could you confirm whether CCCCCC/C=C\CCCCCCCCCC(=O)O[C@H](CC/C(C)=C/COc1ccc2ccc(=O)oc2c1)C(C)(C)O [R-(+)-MARMIN-6'-CIS-VACCENOATE] has pIC50 at or above 5?
RESULT: no

QUERY: Assess whether reported pIC50 for CCCCCCCCCCC(=O)O[C@H](CC/C(C)=C/COc1ccc2ccc(=O)oc2c1)C(C)(C)O [R-(+)-MARMIN-6'-UNDECANOATE] sits at 5 or higher.
RESULT: yes

QUERY: Could you please find out whether C/C(=C\COc1ccc2ccc(=O)oc2c1)CC[C@@H](O)C(C)(C)O [R-(+)-MARMIN] has pIC50 that meets 5 or exceeds it?
RESULT: no

QUERY: Does the reported pIC50 for COc1cc(C[C@H]2CO[C@H](c3ccc(O)c(OC)c3)[C@H]2COC(=O)CC(C)C)ccc1O [(+)-9'-ISOVALEROXYLARICIRESINOL] fall at or above the 5 mark?
RESULT: yes

QUERY: Is pIC50 for CCCCC/C=C\C/C=C\CCCCCCCC(=O)O[C@H](CC/C(C)=C/COc1ccc2ccc(=O)oc2c1)C(C)(C)O [R-(+)-MARMIN-6'-LINOLEATE] at or above 5?
RESULT: yes

Reference for the values: ChEMBL document CHEMBL2346643
